Values from patent US4122179A

Assay: LD50 / acute toxicity, intraperitoneal route
Assay type: in vivo
Details: i.p.; Gleason class in words, classes not defined
MEASURED_ENDPOINT: Toxicity (Gleason)

[[record]]
molecule = "CC[C@]12CCCN3CCc4c(n(c5ccccc45)[C@@](O)(C(=O)OC)C1)[C@@H]32 [Example 8.a, Vincamine p-toluensulfonate]"
measured_endpoint = "Toxicity (Gleason)"
obs_value = "light"

[[record]]
molecule = "CC[C@@]12C=C(C(=O)OC)n3c4c(c5ccccc53)CCN(CCC1)[C@H]42 [Example 6.b, Apovincamine 2,5-dihydroxybenzoate]"
measured_endpoint = "Toxicity (Gleason)"
obs_value = "modest"

[[record]]
molecule = "CC[C@]12CCCN3CCc4c(n(c5ccccc45)[C@@](O)(C(=O)OC)C1)[C@@H]32 [Example 21.a]"
measured_endpoint = "Toxicity (Gleason)"
obs_value = "modest"

[[record]]
molecule = "CC[C@]12CCCN3CCc4c(n(c5ccccc45)[C@@](O)(C(=O)OC)C1)[C@@H]32 [Example 5.a, Vincamine 2,6-dihydroxybenzoate]"
measured_endpoint = "Toxicity (Gleason)"
obs_value = "modest"


###

So I've got a bunch of molecules here, and I need their Max. conc. time values.
Assay: Hematic levels at different times after oral administration (absorption)
Assay type: in vivo, Wistar rat
Conditions: 100 mg/kg expressed as vincamine/apovincamine, 5% carboxymethyl cellulose suspension, 100 mg/kg
Counter-ions that a name gives are not always drawn.
A number alone suffices; assume min.

Noted for CC[C@]12CCCN3CCc4c(n(c5ccccc45)[C@@](O)(C(=O)OC)C1)[C@@H]32 [Example 4.a, Vincamine glucose-1-phosphate, acid salt] : its Max. conc. time reads 240

Just so you know, measured Max. conc. time for CC[C@]12CCCN3CCc4c(n(c5ccccc45)[C@@](O)(C(=O)OC)C1)[C@@H]32 [Example 16.a, Vincamine acetylsalicylate] came out at 20

Form: molecule = CC[C@]12CCCN3CCc4c(n(c5ccccc45)[C@@](O)(C(=O)OC)C1)[C@@H]32 [Example 19.a, Vincamine p-chlorophenoxyacetate] ; Max. conc. time = 480

// Max. conc. time lookup, molecule = CC[C@@]12C=C(C(=O)OC)n3c4c(c5ccccc53)CCN(CCC1)[C@H]42 [Example 22.b, Apovincamine caprate] , result: 240

The recorded Max. conc. time for entry CC[C@@]12C=C(C(=O)OC)n3c4c(c5ccccc53)CCN(CCC1)[C@H]42 [Example 5.b, Apovincamine 2,6-dihydroxybenzoate] equals 120

###

Assay: Solubility
Assay type: physicochemical
Details: water; qualitative
MEASURED_ENDPOINT: solubility in water

[[record]]
molecule = "CC[C@@]12C=C(C(=O)OC)n3c4c(c5ccccc53)CC[N+](C)(CCC1)[C@H]42 (stereo partly drawn) [Example 17.b, Apovincamine methylsulfate]"
obs_value = "soluble"

[[record]]
molecule = "CC[C@]12CCCN3CCc4c(n(c5ccccc45)[C@@](O)(C(=O)OC)C1)[C@@H]32 [Example 28.a, Vincamine salicylate]"
obs_value = "insoluble"

[[record]]
molecule = "CC[C@@]12C=C(C(=O)OC)n3c4c(c5ccccc53)CCN(CCC1)[C@H]42 [Example 21.b, Apovincamine caproate]"
obs_value = "insoluble"

[[record]]
molecule = "CC[C@]12CCCN3CCc4c(n(c5ccccc45)[C@@](O)(C(=O)OC)C1)[C@@H]32 [Example 19.a, Vincamine p-chlorophenoxyacetate]"
obs_value = "insoluble"

[[record]]
molecule = "CC[C@@]12C=C(C(=O)OC)n3c4c(c5ccccc53)CCN(CCC1)[C@H]42 [Example 5.b, Apovincamine 2,6-dihydroxybenzoate]"
obs_value = "insoluble"


Switching to the query record.
Summary for this molecule, CC[C@]12CCCN3CCc4c(n(c5ccccc45)[C@@](O)(C(=O)OC)C1)[C@@H]32 [Example 11.a, Vincamine 4-acetamidobutyrate] : solubility in water is insoluble
